Biological target: NEK6 (human) (UniProt Q9HC98)
Sequence (Q9HC98 whole entry, looked up): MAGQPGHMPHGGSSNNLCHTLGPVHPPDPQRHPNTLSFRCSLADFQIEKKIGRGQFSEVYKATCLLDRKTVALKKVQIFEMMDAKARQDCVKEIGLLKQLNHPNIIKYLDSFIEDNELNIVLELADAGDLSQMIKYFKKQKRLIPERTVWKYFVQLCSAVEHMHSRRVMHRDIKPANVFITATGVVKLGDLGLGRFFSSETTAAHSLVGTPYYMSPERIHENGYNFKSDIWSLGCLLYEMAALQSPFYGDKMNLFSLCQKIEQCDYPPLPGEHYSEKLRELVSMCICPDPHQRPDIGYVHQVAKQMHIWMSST
Experiment: KINOMEscan competition binding
Conditions: compound 10.0 µM
readoutLabel: kinase still bound, per cent of control (%)
Use % as the unit, but write only the number.

The compound OCCCNc1cc(-c2ccnc(Nc3cccc(Cl)c3)n2)ccn1 showed kinase still bound, per cent of control equal to 100

The compound O=C(O)c1ccc(Nc2ncc3c(n2)-c2ccc(Cl)cc2C(c2c(F)cccc2F)=NC3)cc1 showed kinase still bound, per cent of control equal to 100

The compound CCOc1cc2ncc(C#N)c(Nc3ccc(OCc4ccccn4)c(Cl)c3)c2cc1NC(=O)/C=C/CN(C)C showed kinase still bound, per cent of control equal to 88

The compound Cc1ccc(C(=O)Nc2cccc(C(F)(F)F)c2)cc1Nc1cncc(C(N)=O)c1 showed kinase still bound, per cent of control equal to 100

The compound Cc1ccc(NC(=O)c2cccc(C(C)(C)C#N)c2)cc1Nc1ccc2ncn(C)c(=O)c2c1 showed kinase still bound, per cent of control equal to 100

The compound Cc1ccc2nc(NCCN)c3ncc(C)n3c2c1 showed kinase still bound, per cent of control equal to 100

The compound C=CC(=O)Nc1cccc(Oc2nc(Nc3ccc(N4CCN(C)CC4)cc3OC)ncc2Cl)c1 showed kinase still bound, per cent of control equal to 9

The compound Nc1ccc(-c2ccc3ncc4ccc(=O)n(-c5cccc(C(F)(F)F)c5)c4c3c2)cn1 showed kinase still bound, per cent of control equal to 92

The compound CCN1CCN(Cc2ccc(Nc3ncc4c(n3)N(C)c3ccccc3C(=O)N4C)cc2C(F)(F)F)CC1 showed kinase still bound, per cent of control equal to 64

The compound O=C1Nc2ccc(I)cc2/C1=C/c1cc(Br)c(O)c(Br)c1 showed kinase still bound, per cent of control equal to 96

The compound Cn1c(=O)n(-c2ccc(C(C)(C)C#N)cc2)c2c3cc(-c4cnc5ccccc5c4)ccc3ncc21 showed kinase still bound, per cent of control equal to 100

The compound CCC(=O)N1CCN(c2ccc(-n3c(=O)ccc4cnc5ccc(-c6cnc7ccccc7c6)cc5c43)cc2C(F)(F)F)CC1 showed kinase still bound, per cent of control equal to 99

The compound CC[C@@H]1C(=O)N(C)c2cnc(Nc3ccc(C(=O)NC4CCN(C)CC4)cc3OC)nc2N1C1CCCC1 showed kinase still bound, per cent of control equal to 100

The compound CCCS(=O)(=O)Nc1ccc(F)c(C(=O)c2c[nH]c3ncc(-c4ccc(Cl)cc4)cc23)c1F showed kinase still bound, per cent of control equal to 100

The compound C=CC(=O)Nc1cc(NC(=O)c2ccc(C)c(NC(=O)c3ccno3)c2)cc(C(F)(F)F)c1 showed kinase still bound, per cent of control equal to 100

The compound O=C(NC1CC1)c1cccc(-c2ccc3c(NC(=O)C4CC4)n[nH]c3c2)c1 showed kinase still bound, per cent of control equal to 90
